B1: library; numbered along this chain (parent)
chain: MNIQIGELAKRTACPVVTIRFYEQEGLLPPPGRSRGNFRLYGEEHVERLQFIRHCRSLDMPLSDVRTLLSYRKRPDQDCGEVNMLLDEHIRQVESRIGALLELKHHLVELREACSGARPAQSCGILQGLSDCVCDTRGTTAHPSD

Variants of: B1
EXPERIMENT_DESCRIPTION: sfGFP reporter fluorescence (15 h) (µM FITC); higher = higher leak
REPORTED_CONDITIONS: library round: Round 0; ligand: none
MEASUREMENT_TYPE: sfGFP reporter fluorescence
Answer using only a numeral; do not append any unit.

For orientation, consider the following solved cases.
>  <ITEM_SEQUENCE>
MNIQIGELAKRTACPVVTIRFYEQEGLLPPPGRSRGNFRLYGEEHVERLQFIRHCRSLDMPLSDVRTLLSYRKRPDQDCGEVNMLLDEHIRQVESRWGALLELKHHLVELREACSGARPAQSCGILQGLSDCVCDTRGTTAHPSD [I97W]

>  <sfGFP reporter fluorescence>
0.0585

$$$$
>  <ITEM_SEQUENCE>
MNIQIGELAKRTACPVVTIRFYEQEGLLPPPGRSRGNFRLYGEEHVERLQFIRHCRSLDYPLSDVRTLLSYRKRPDQDCGEVNMLLDEHIRQVESRIGALLELKHHLVELREACSGARPAQSCGILQGLSDCVCDTRGTTAHPSD [M60Y]

>  <sfGFP reporter fluorescence>
0.0621

$$$$

What the record says about MNIQIGELAKRTACPVVTIRFYEQEGLLPPPGRSRGNFRLYGEEHVERLQFIRHCRSLDMPLSDVRTLLSYRKRPDQDCGEVNMLLDEHIRQVESRGGALLELKHHLVELREACSGARPAQSCGILQGLSDCVCDTRGTTAHPSD [I97G] : sfGFP reporter fluorescence is 0.0555

What the record says about MNIQIGELAKRTACPVVTIRFYEQEGLLPPPGRSRGNFRLYGEEHVERLQFIRHCRSNDMPLSDVRTLLSYRKRPDQDCGEVNMLLDEHIRQVESRIGALLELKHHLVELREACSGARPAQSCGILQGLSDCVCDTRGTTAHPSD [L58N] : sfGFP reporter fluorescence is 0.0564

What the record says about MNIQIGELAKRTACPVVTIRFYEQEGLLPPPGRSRGNFRLYGEEHVERLQFIRHCRSLDMNLSDVRTLLSYRKRPDQDCGEVNMLLDEHIRQVESRIGALLELKHHLVELREACSGARPAQSCGILQILSDCVCDTRGTTAHPSD [P61N G128I] : sfGFP reporter fluorescence is 0.189

What the record says about MNIQIGELAKRTACPVVTIRFYEQEGLLPPPGRSRGNFRLYGEEHVERLQFIRHCRSLDMPLSDVRTLLSYRKRPDQDCGEVNMPLDEHIRQVESRIGALLELKHHLVELREACSGARPAQSCGILQGLSDCVCDTRGTTAHPSD [L85P] : sfGFP reporter fluorescence is 0.057

What the record says about MNIQIGELAKRTACPVVTIRFYAQEGLLPPPGRSRGNFRLYGEEHVERLQFIRHCRSLDMPLSDVRTLLSYRKRPDQDCGEVNMLLDEHIRQVESRIGALLELKHHLVELREACSGARPAQSCGILQGLSDCVCDTRGTTAHPSD [E23A] : sfGFP reporter fluorescence is 0.0608

What the record says about MNIQIGELAKRTACPVVTIRFYEQEGLNPPPGRSRGNFRLYGEEHVERLQFIRHCRSLDMPLSDVRTLLSYRKRPDQDCGEVNMLLDEHIRQVESRIGALLELKHHLVELREACSGARPAQSCGILQGLSDCVCDTRGTTAHPSD [L28N] : sfGFP reporter fluorescence is 0.0629

What the record says about MNIQIGELAKRTACPVVTIRFYEQEGLLPPPGRSRGNFRLYGEEHVERLQFIRHCRSLDMPLSDVRTFLSYRKRPDQDCGEVNMLLDEHIRQVESRIGALLELKHHLVELREACSGARPAQSCGILQGLSDCVCDTRGTTAHPSD [L68F] : sfGFP reporter fluorescence is 0.0793

What the record says about MNEQIGELAKRTACPVVTIRFYEQEGLLPPPGRSRGNFRLYGEEHVERLQFIRHCRSLDMPLSDVRTLLSYRKRPDQDCGEVNMLLDEHIRQVESRIGALLELKHHLVELREACSGARPAQSCGILQGLSDCVCDTRGTTAHPSD [I3E] : sfGFP reporter fluorescence is 0.061
